molecular target: GSK3α (GST-full length GSK3α) (Homo sapiens (Human), UniProt P49840); test: GSK3α TR-FRET kinase assay; assay type: biochemical; details: 1 nM GSK3α, 4 μM ATP, 30 minute preincubation; geometric mean; read-out: GSK3-A TR-FRET BIOCHEMICAL (TR-FRET); GMean; IC50
Sequence (P49840 whole entry): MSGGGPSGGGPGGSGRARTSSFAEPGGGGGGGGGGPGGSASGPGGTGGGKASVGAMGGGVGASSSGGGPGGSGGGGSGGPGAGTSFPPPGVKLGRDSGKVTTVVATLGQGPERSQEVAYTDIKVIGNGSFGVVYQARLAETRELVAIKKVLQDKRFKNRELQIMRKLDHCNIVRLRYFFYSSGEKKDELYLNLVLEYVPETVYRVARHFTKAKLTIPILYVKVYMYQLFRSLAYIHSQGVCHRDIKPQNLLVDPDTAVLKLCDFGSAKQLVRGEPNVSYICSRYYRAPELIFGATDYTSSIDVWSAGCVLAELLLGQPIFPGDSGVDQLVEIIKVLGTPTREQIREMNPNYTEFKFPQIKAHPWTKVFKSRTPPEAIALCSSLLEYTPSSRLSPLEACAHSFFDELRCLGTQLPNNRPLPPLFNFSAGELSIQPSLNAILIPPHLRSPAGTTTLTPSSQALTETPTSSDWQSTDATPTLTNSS
Listed molecules paired with reported IC50

Examples with answers:
- MOLECULE: "CCC1(c2cccc(-c3ccncc3)c2)C2=C(CC(C)CC2=O)Nc2n[nH]cc21 (stereo not shown) [Compound 874316]"
  TARGET_DESC: "GSK3α (GST-full length GSK3α) (Homo sapiens (Human), UniProt P49840)"
  IC50: "100 to 1000 nM"
- MOLECULE: "CCC1(c2cccc(-c3ccnc(C)c3)c2)C2=C(CC3(CCCOC3)NC2=O)Nc2n[nH]cc21 (stereo not shown) [Compound 948152]"
  TARGET_DESC: "GSK3α (GST-full length GSK3α) (Homo sapiens (Human), UniProt P49840)"
  IC50: "≤ 100 nM"
- MOLECULE: "CCc1cc(-c2cccc([C@]3(CC)C4=C(CC(C)(C)NC4=O)Nc4n[nH]cc43)c2)ccn1"
  TARGET_DESC: "GSK3α (GST-full length GSK3α) (Homo sapiens (Human), UniProt P49840)"
  IC50: "1000 to 5000 nM"
- MOLECULE: "CC[C@]1(c2cccc(-c3ccncc3C)c2)C2=C(CC(C)(C)NC2=O)Nc2[nH]nc(C(F)(F)F)c21"
  TARGET_DESC: "GSK3α (GST-full length GSK3α) (Homo sapiens (Human), UniProt P49840)"
  IC50: "≤ 100 nM"
- MOLECULE: "CC[C@@]1(c2cccc(-c3c(C)c(C)nn3C)c2)C2=C(CC(C)(C)NC2=O)Nc2n[nH]cc21"
  TARGET_DESC: "GSK3α (GST-full length GSK3α) (Homo sapiens (Human), UniProt P49840)"
  IC50: "> 5000 nM"
- MOLECULE: "CCC1(c2cccc(-c3c(C)nn(C)c3C)c2)C2=C(CC(C)(C)NC2=O)Nc2n[nH]c(C)c21 (stereo not shown)"
  TARGET_DESC: "GSK3α (GST-full length GSK3α) (Homo sapiens (Human), UniProt P49840)"
  IC50: "≤ 100 nM"

Now for a further molecule.
Request: Can you share its IC50? I mean this molecule: CCC1(c2cccc(S(=O)(=O)CC3CC3)c2)C2=C(CC(C)(C)NC2=O)Nc2n[nH]cc21 (stereo not shown)
Response: ≤ 100 nM

----------
Listed compounds paired with reported IC50
molecular target: GSK3α (GST-full length GSK3α) (Homo sapiens (Human)); assay: GSK3α TR-FRET kinase assay; type: biochemical; conditions: 1 nM GSK3α, 4 μM ATP, 30 minute preincubation, Table 16; read-out: GSK3-A TR-FRET BIOCHEMICAL (TR-FRET); IC50

Examples with answers:
- COMPOUND: "CCC1(c2cccc(-c3cn(C)nc3C)c2)C2=C(CC(C)(C)NC2=O)Nc2n[nH]c(Cl)c21 (stereo not shown)"
  RESULT_VALUE: "≤ 100 nM"
- COMPOUND: "CCC1(c2cccc(N(C)c3ncccn3)c2)C2=C(CC(C)(C)NC2=O)Nc2n[nH]c(C(F)F)c21 (stereo not shown)"
  RESULT_VALUE: "≤ 100 nM"
- COMPOUND: "CC[C@@]1(c2cccc(-c3cnn(-c4ccccn4)c3)c2)C2=C(CC(C)(C)NC2=O)Nc2n[nH]cc21"
  RESULT_VALUE: "> 5000 nM"
- COMPOUND: "CC1(C)CC(=O)C2=C(C1)Nc1n[nH]cc1C21CNC1"
  RESULT_VALUE: "1000 to 5000 nM"
- COMPOUND: "CC[C@]1(c2cccc(-c3ccnc(C)c3)c2)C2=C(CC(C)(C)NC2=O)Nc2n[nH]c(Cl)c21"
  RESULT_VALUE: "100 to 1000 nM"
- COMPOUND: "CC[C@]1(c2cccc(-c3cnn4c3CC(C)(C)CC4)c2)C2=C(CC(C)(C)NC2=O)Nc2n[nH]cc21"
  RESULT_VALUE: "≤ 100 nM"

Request: Query the reported IC50 for GSK3α (GST-full length GSK3α) (Homo sapiens (Human)); item: CCC1(c2cccc(-c3ccnc4c3CCCC4)c2)C2=C(CC(C)(C)CC2=O)Nc2n[nH]cc21 (stereo not shown)
Response: ≤ 100 nM

Values compiled from patent US20250313563A1.
